test system: C2C12 Cells; test: Glucose utilization in cultured C2C12 cells (myotubes); type: cell-based, mouse; conditions: glucose concentration in medium relative to untreated cells; 5 μM peptide, 22 h
measurementLabel: Percent of Control Activity (%)

95 (MNHIMAKGHDG) [compound 95] :: 92
44 (MGVKFFTLST) [compound 44] :: 103
81 (MMFPIRLHNSPIRP) [compound 81] :: 118
60 (MLEIVMGMETYHMSNA) [compound 60] :: 101
137 (MTSLHNSFYSKDTSLRTPLMTP) [compound 137] :: 116
103 (MPPKDKIWNLV) [compound 103] :: 98
35 (MGGRWGLGWWRAG) [compound 35] :: 108
191 (LGWGWPGGWVWGGGFMVEERWWEL) [compound 191] :: 95
204 (RMGASIGSTTRLSTS) [compound 204] :: 95
158 (MWEEAGRMSEGCLG) [compound 158] :: 106
164 (MWNDLLQCSEP) [compound 164] :: 102
166 (MWSHPSHHSTINITNKWLL) [compound 166] :: 105
193 (LHNNPNPNTNYLPNWKQNTQMGLS) [compound 193] :: 110
133 (MTLGHNMIYLHTS) [compound 133] :: 100
143 (MVGYLIPVWVLAIVCSDMLKPLS) [compound 143] :: 98
201 (TKNFHQTPPPPLLATALKHISAKP) [compound 201] :: 96
118 (MSLSYLQDSTY) [compound 118] :: 83
179 (MSSSMMGEVASC) [compound 179] :: 105
120 (MSMPVLGWQWG) [compound 120] :: 98
36 (MGLAAVCVCWVGWAGVVLM) [compound 36] :: 106
173 (MYTPTNNVQPVTTTNQRP) [compound 173] :: 95
165 (MWRVLGALWW) [compound 165] :: 95
88 (MMMTIECLHSHFPH) [compound 88] :: 87
43 (MGVGMEWGLLLRRGR) [compound 43] :: 101
151 (MVNGRRTSVGV) [compound 151] :: 95
134 (MTNIFGVWAR) [compound 134] :: 101
40 (MGSPPPAGSKKVVL) [compound 40] :: 109
113 (MQTKSLQSPQ) [compound 113] :: 97
153 (MVSMMTSMGM) [compound 153] :: 104
114 (MQWAILGLFVVG) [compound 114] :: 107
28 (MGCSGSSVSQCYRVHTPQTKMPNAW) [compound 28] :: 100
38 (MGLWLVCWVL) [compound 38] :: 108
148 (MVLNLRVHRLRRTNLQLLHTSPIIP) [compound 148] :: 103
127 (MSTINQQVIITLTVNPTQACS) [compound 127] :: 109
185 (MLVMLEVMFLVN) [compound 185] :: 92
45 (MHGELPWVVN) [compound 45] :: 108
79 (MMCLRFRWCGLWS) [compound 79] :: 94
199 (PLCKIHCRIHLYYQSLPHNNIHVP) [compound 199] :: 94
62 (MLGVVGWCRL) [compound 62] :: 91
69 (MLMVEWWLGWLHM) [compound 69] :: 107
72 (MLQGQAHLSILFSI) [compound 72] :: 97
19 (METDLDYSGLNSDHVGL) [compound 19] :: 94
92 (MMTWSPWKPVATKNVEP) [compound 92] :: 93
125 (MSSDEFANTMPV) [compound 125] :: 109
208 (CHWAGGASNTGDA) [compound 208] :: 89
75 (MLTPGLVNFVPATAVTRLTQVN) [compound 75] :: 100
8 (MAPPLPPLEPTVKLT) [compound 8] :: 102
32 (MGGEWGMGVWTWGCFLVWM) [compound 32] :: 108
87 (MMMFVYSAMKN) [compound 87] :: 97
176 (MKNIEAPLAW) [compound 176] :: 103
33 (MGGGVLLGLQ) [compound 33] :: 111

Cited source: patent US20220332774A1
